# target of assay: human TLR9 (Homo sapiens (Human), UniProt Q9NR96)
# Sequence (Q9NR96 26-1032): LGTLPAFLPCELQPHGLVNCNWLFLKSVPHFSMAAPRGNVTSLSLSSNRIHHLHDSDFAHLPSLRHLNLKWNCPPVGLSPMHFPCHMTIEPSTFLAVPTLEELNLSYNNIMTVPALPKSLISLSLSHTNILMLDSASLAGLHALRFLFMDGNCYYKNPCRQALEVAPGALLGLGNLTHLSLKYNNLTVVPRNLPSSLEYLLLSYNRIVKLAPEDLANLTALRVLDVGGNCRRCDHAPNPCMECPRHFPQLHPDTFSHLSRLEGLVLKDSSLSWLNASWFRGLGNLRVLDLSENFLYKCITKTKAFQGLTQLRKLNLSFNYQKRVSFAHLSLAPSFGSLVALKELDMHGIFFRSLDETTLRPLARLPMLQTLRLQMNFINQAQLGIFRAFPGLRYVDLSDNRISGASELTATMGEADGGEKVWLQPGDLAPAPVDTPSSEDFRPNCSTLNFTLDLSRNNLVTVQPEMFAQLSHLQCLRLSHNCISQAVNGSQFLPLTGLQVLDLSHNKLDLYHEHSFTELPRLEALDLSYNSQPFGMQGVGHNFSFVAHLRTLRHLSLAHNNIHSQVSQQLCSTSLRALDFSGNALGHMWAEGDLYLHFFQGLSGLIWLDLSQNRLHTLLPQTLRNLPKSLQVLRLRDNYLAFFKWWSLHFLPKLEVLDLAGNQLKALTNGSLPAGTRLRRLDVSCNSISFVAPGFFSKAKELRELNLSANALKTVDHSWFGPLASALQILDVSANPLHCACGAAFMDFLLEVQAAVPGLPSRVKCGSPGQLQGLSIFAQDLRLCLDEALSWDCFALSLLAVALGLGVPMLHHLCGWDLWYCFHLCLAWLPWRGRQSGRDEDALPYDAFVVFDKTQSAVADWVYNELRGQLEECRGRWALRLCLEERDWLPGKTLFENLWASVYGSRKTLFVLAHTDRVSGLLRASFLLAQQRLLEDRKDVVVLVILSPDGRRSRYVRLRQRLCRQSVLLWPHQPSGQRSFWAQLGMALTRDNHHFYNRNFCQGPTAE
# protocol: TLR9 inhibition reporter assay (HEK-Blue cells, SEAP reporter, ODN2006 stimulation);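 note: compounds tested over 0.05 nM to 50 µM, 22 h incubation, inhibition taken as SEAP signal drop from agonist plus DMSO wells toward a known inhibitor control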
# condition description: read-out: TLR9 IC50, HEK-Blue cells overexpressing human TLR9, ODN2006 5 nM
readout type: IC50 (nM)

Illustrative cases are given below, each with its answer.
> print(dat)
                                   molecule  readout.type  experimental.result
1  CCc1c(-c2cc(C)nc(C)c2)[nH]c2ccc(C3CCN(CC(=O)NC)CC3)cc12          IC50                  608
2  Cc1cc(-c2[nH]c3ccc(C4CCN(C(=O)C5CCNCC5)CC4)cc3c2C(C)C)cc(C)n1          IC50                  549
3  CNC(=O)C(=O)N1CCC(c2ccc3[nH]c(-c4cc(C)nc(C)c4)c(C(C)C)c3c2)CC1 [Example 204]          IC50                17200

a. Cc1cc(-c2[nH]c3ccc(C4CCN(CC(=O)N(C)CC#N)CC4)cc3c2C(C)C)cc(C)n1
b. CNC(=O)CN1CCC(c2ccc3[nH]c(-c4cc(C)ncc4F)c(C(C)C)c3c2)CC1
Which record shows the lower IC50: the first, a , or the second, b ? # answer = label of selected item a
(a: 462 nM, b: 3140 nM)
